# assayDetails: Aqueous solubility of compound at pH 7.4 measured for 1 hr by UV-plate reader analysis
# Assay type: physicochemical
# condition: buffer
propertyLabel: solubility at 1 h (µM)
Form entry: value (µM) — number only.

Consider the worked cases shown below.
CCCCC(NC(=O)c1[nH]c2c(c1C)C(=O)CC(C)(C)C2)C(=O)Nc1ccc(C#N)cc1 (racemic) : 12.9
CCCCC(NC(=O)c1[nH]c2c(c1C)C(=O)CC(C)(C)C2)C(=O)Nc1cccnc1 (racemic) : 143
CCCCC(NC(=O)c1[nH]c2c(c1C)C(=O)CC(C)(C)C2)C(=O)Nc1ccncc1 (racemic) : 133

*Q* // query solubility at 1 h value for entry CCCCC(NC(=O)c1[nH]c2c(c1C)C(=O)CC(C)(C)C2)C(=O)Nc1ccc(Cl)cc1 (racemic)
*A* 5.1

*Q* // query solubility at 1 h value for entry CCCCC(NC(=O)c1[nH]c2c(c1C)C(=O)CC(C)(C)C2)C(=O)Nc1ccc(F)cc1 (racemic)
*A* 16.5

*Q* // query solubility at 1 h value for entry CCCCC(NC(=O)c1[nH]c2c(c1C)C(=O)CC(C)(C)C2)C(=O)Nc1ccc(S(C)(=O)=O)cc1 (racemic)
*A* 43.6

*Q* // query solubility at 1 h value for entry CCCCC(NC(=O)c1[nH]c2c(c1C)C(=O)CC(C)(C)C2)C(=O)Nc1ccccc1OC (racemic)
*A* 7.2

*Q* // query solubility at 1 h value for entry CCCCNC(=O)C(CCCC)NC(=O)c1[nH]c2c(c1C)C(=O)CC(C)(C)C2 (racemic)
*A* 11

*Q* // query solubility at 1 h value for entry CCCCC(NC(=O)c1[nH]c2c(c1C)C(=O)CC(C)(C)C2)C(=O)Nc1ccc(OC)cc1 (racemic)
*A* 5.9
